- Test system: HOP-92 NSCLC
- Experiment summary: NCI tumour cell line growth inhibition, 48 h; in the data active means GI50 below about 0.43 µM; inactive means the rest
Entry note: the call must match one of y (active), n (inactive)

In: // return assay outcome for Fc1cccc(-c2[nH]nc3nc(Nc4cccnc4)sc23)c1
Out: n

In: Would you mind telling me which call this test gave Cc1ccc(C2=NN(c3ccc(S(N)(=O)=O)cc3)C(c3cn(-c4ccccc4)nc3-c3ccccc3)C2)cc1 (stereo not given) ?
Out: n

In: Give the logged outcome of this assay for the following compound: C[C@@H]1OCC2(CCN(c3cnc(Sc4ccnc(N)c4Cl)c(N)n3)CC2)[C@@H]1N
Out: y

In: GET /call?item= CC[CH2][Sn]([CH2]CC)([O]C(=O)Cc1ccc(F)cc1)[O][Sn]([CH2]CC)([CH2]CC)[O]C(=O)Cc1ccc(F)cc1 returns the recorded outcome of this test.
Out: y

In: Test call for this compound, please: Oc1c(CN2CCN(c3ccccc3F)CC2)cc(Br)c2cccnc12
Out: n

In: What classification did CCOCCOC[C@H]1CCCN(c2ccnc3sc(C(N)=O)c(N)c23)C1 end up with in this test?
Out: n

In: Query: recorded result category for c1ccc2c3c(ccc2c1)-c1c(ccc2c(NCCCCN4CCCCC4)cccc12)C3 in this test
Out: n

In: # fetch the recorded call for C=C(C)[C@@H]1CC[C@]2(C(N)=O)CC[C@]3(C)[C@H](CC[C@@H]4[C@@]5(C)C/C(=C/c6cccnc6)[C@H](O)C(C)(C)[C@@H]5CC[C@]43C)[C@@H]12 here
Out: n

In: What call does the record list for Nc1c2ccccc2nc2ccccc12 (tested in a mixture with another compound) ?
Out: n

In: For COc1cc(N2CCC(N3CCN(C)CC3)CC2)ccc1Nc1ncc(Cl)c(Nc2ccccc2S(=O)(=O)C(C)C)n1 , what call appears in the results of this test?
Out: y

----------
- Test system: SW-620 colon
- Experiment summary: NCI tumour cell line growth inhibition, 48 h
Measured quantity: TGI

Hey, SW-620 colon data for CCN(CC)CCCNc1ncc(C)c2c1c1ccc3c(O)cccc3c1n2C : TGI came out at 2.61 µM

The recorded TGI with SW-620 colon for CCOC(=O)NC1CC2CCC1(OC)C=C2C (stereo unspecified) was > 100 µM

Item: C#Cc1cc(CN(CC(=O)OC(C)(C)C)CC(=O)OC(C)(C)C)nc(CN(CC(=O)OC(C)(C)C)CC(=O)OC(C)(C)C)c1 | System: SW-620 colon | TGI: 21.1 µM

Entry COC(=O)[C@@]12C=CC(=O)[C@H]3C[C@@H](C(C(C)C)C1)[C@]32OC (stereo partly specified) under SW-620 colon had TGI of > 100 µM

Item C=C(CN(C)C)C(=O)c1ccc(Oc2ccccc2)cc1 was tested on SW-620 colon; the reported TGI is 9.27 µM

Item CCOP(=O)(OCC)C(F)(F)Cc1cnc(C)c2c1COC(C)(C)O2 was tested on SW-620 colon; the reported TGI is > 10 µM

NC(CC(=O)O)(Cc1ccccc1)C(=O)O (stereo unspecified) on SW-620 colon gives TGI = > 100 µM

Lab note: molecule O=C(C=Nc1ccccc1C(=O)[O-])c1cccs1.O=C(C=Nc1ccccc1C(=O)[O-])c1cccs1.[Zn+2] tested on SW-620 colon; recorded TGI was > 100 µM

The recorded TGI with SW-620 colon for O=C1OC(CS(=O)(=O)c2ccccc2)CC1O (stereo unspecified) was > 100 µM

Record c1cc(C[S+]2CCCC2)sc1C[S+]1CCCC1 has SW-620 colon TGI equal to > 100 µM

TGI on SW-620 colon for CC(=O)C1=C(O)CCC1=O is > 100 µM
